# Method Notes: gradient 5% acetonitrile 3 min, to 50% in 2 min, to 85% in 15 min, held 3 min, 100 µL/min
# Particulars: column: Zorbax Extend-C18 2.1 x 50 mm; eluents: water / acetonitrile, 0.1% formic acid
Parameter: RP-LC retention time (s)
Numbers only; they are read as s.

Consider the reported RP-LC retention time for these compounds:
>>> print(df.to_string())
                                   compound  output_unit  measured_number
0  Cc1cccc(NC(=O)N2CCN(c3ccc(=O)n(-c4ccccc4)n3)CC2)c1            s              776
1  O=C(Cc1csc(SCC(=O)c2cccs2)n1)NCCc1c[nH]c2ccccc12            s              806
2  CC(C)(C)n1nnnc1C1CC2(CCOCC2)C(=O)N1Cc1ccc(F)cc1 (centres undefined)            s              798
3  Cc1nc(-c2cn(C)c3ncccc23)sc1C(=O)NCc1ccc(F)cc1Cl            s              990

IN: State the recorded RP-LC retention time for this entry: COc1nn(C)cc1C(=O)N1CCCC(C(=O)NCc2ccccc2OC(F)(F)F)C1 (centres undefined)
OUT: 705

IN: Now consider CC1CCN(c2cc(-c3noc(C(=O)N4CCN(C5CCCCC5)CC4)n3)ccn2)CC1 .
OUT: 647

IN: Can you check COCCN1C(=O)CC[C@]2(C(=O)NCc3ccccc3Cl)CCCC[C@@H]12 next?
OUT: 730

IN: What do you get for O=S(=O)(Cc1ccccc1)N1CCCCC1c1nc(C2CC2)n[nH]1 (centres undefined) ?
OUT: 758

IN: And for O=C(c1ccoc1)N1CC(n2cc(COCc3ccccc3)nn2)C1 ?
OUT: 734

IN: Try this compound too: CNC(=O)Cc1ccc(NC(=O)NC2CCCCC2)cc1
OUT: 642

IN: Try Cc1nc2ccn(Cc3cccnc3)c(=O)c2cc1C(=O)NCCC1=CCCCC1 next.
OUT: 648

IN: Could you do the same for CCn1cc(-c2nc(C)c(C(=O)N3CCN(c4ccccc4)CC3)s2)c2cccnc21 , please?
OUT: 994

* * *

# Method Notes: gradient 5% acetonitrile 3 min, to 50% in 2 min, to 85% in 15 min, held 3 min, 100 µL/min
# Particulars: column: Zorbax Extend-C18 2.1 x 50 mm; eluents: water / acetonitrile, 0.1% formic acid
Listing of recorded RP-LC retention time by entry.
The reply must contain the numeric value and, after it, the unit.

A selection of reference data follows.
                                   compound  result
0  Cn1c(N2CCN(C(=O)Cc3ccc(F)cc3)CC2)cc(=O)n(C)c1=O   680 s
1  CCOC(=O)c1[nH]c(C)c(CCC(=O)N2CCC(C(=O)NCCCN3CCOCC3)CC2)c1C   580 s
2  COc1ccc(NC(=O)N(Cc2nnc3n2CCCCC3)c2cccc(OC)c2)cc1   700 s

IN: Look at this compound and give its reported RP-LC retention time. COc1ccc(NC(=O)N2CCN(c3cnn4c(C)nnc4c3)CC2)c(OC)c1
OUT: 577 s

IN: Entry CCN(CC)C(=O)Cn1nc2cc(C)nc(-c3ccc(C(F)(F)F)cc3)n2c1=O please
OUT: 841 s

IN: How about O=C(Nc1ccc2c(c1)OCO2)C1CC(=O)N(CCc2c[nH]c3ccc(F)cc23)C1 (stereo not given) ?
OUT: 750 s

IN: Then this compound: O=S(=O)(NCCN1CCN(c2ccccc2F)CC1)c1cc(F)ccc1F
OUT: 594 s

IN: Moving on to Cc1nccn1CC(=O)N1CCCn2cc(-c3cccc(C#N)c3)nc21
OUT: 626 s

IN: Now this one: Cc1ccc(S(=O)(=O)N2CCC3(CCC(CN4CCN(C)CC4)O3)CC2)cc1Cl (stereo not given)
OUT: 655 s

IN: How about CCc1ccc(CNC(=O)CC2CCN(C(=O)c3[nH]c(C)c(C)c3C)CC2)cc1 ?
OUT: 898 s
